biological target: OCT3 (SLC22A3) (Homo sapiens); test: Substrate activity at human OCT3 overexpressed in HEK293 cells assessed as uptake ratio incubated for 2 mins by LC-MS/MS analysis; type: ADME, cell-based; settings: HEK293 cells overexpressing OCT3
# label = Fulfilled if uptake ratio at 2 min < 30 else Not fulfilled

These recorded examples may help you get a feel for the data.
>>> category_label("C[N+]1(C)[C@@H]2C[C@H](OC(=O)C(O)(c3cccs3)c3cccs3)C[C@H]1[C@@H]1O[C@@H]12")
"Not fulfilled"
>>> category_label("CC[N+](CC)(CC)CC(=O)Nc1c(C)cccc1C")
"Not fulfilled"
>>> category_label("N=C(N)N1Cc2ccccc2C(O)C1 (stereo not drawn)")
"Not fulfilled"
>>> category_label("CC(C)(C)NCC(O)c1ccc(O)c(O)c1 (stereo not drawn)")
"Not fulfilled"
>>> category_label("CN(C)CCc1c[nH]c2ccc(Cn3cncn3)cc12")
"Fulfilled"

is_below(uptake ratio at 2 min, 30) for `CN[C@@H]1CCc2[nH]c3ccc(C(N)=O)cc3c2C1` ? Fulfilled

is_below(uptake ratio at 2 min, 30) for `C[N+]1(C)CCN(c2ccccc2)CC1` ? Not fulfilled

is_below(uptake ratio at 2 min, 30) for `COc1ccc2[nH]cc(CCN)c2c1` ? Fulfilled

is_below(uptake ratio at 2 min, 30) for `CC[N+](CC)(CC)Cc1ccccc1` ? Not fulfilled

* * *

The molecules listed here are annotated with their inhibition at 5 min, 20 µM.
biological target: OCT3 (SLC22A3) (Homo sapiens, UniProt O75751); assay: Inhibition of human OCT3 mediated N-Ethyllidocaine uptake overexpressed in HEK293 cells at 20 uM incubated for 5 mins by HPLC-MS/MS analysis relative to control; type: cell-based; conditions: HEK293 cells overexpressing OCT3, probe N-Ethyllidocaine
// note: answer is a bare numeric in %

>>> measured_value("CC[C@@H](CO)NCCN[C@@H](CC)CO")
-7
>>> measured_value("C[N+]1(C)[C@@H]2C[C@H](OC(=O)[C@H](CO)c3ccccc3)C[C@H]1[C@@H]1O[C@@H]12")
21

Moving on to another molecule below.
Fill in the recorded inhibition at 5 min, 20 µM for this molecule, with OCT3 (SLC22A3) (Homo sapiens, UniProt O75751) as test system: `CN(C)c1ccc(/C=C/c2cc[n+](C)cc2)cc1` 70

* * *

molecular target: OCT1 (Homo sapiens); experiment: Substrate activity at OCT1 (unknown origin) assessed as uptake ratio; type: ADME, cell-based; settings: HEK293 cells
Sequence (O15245 whole entry, looked up): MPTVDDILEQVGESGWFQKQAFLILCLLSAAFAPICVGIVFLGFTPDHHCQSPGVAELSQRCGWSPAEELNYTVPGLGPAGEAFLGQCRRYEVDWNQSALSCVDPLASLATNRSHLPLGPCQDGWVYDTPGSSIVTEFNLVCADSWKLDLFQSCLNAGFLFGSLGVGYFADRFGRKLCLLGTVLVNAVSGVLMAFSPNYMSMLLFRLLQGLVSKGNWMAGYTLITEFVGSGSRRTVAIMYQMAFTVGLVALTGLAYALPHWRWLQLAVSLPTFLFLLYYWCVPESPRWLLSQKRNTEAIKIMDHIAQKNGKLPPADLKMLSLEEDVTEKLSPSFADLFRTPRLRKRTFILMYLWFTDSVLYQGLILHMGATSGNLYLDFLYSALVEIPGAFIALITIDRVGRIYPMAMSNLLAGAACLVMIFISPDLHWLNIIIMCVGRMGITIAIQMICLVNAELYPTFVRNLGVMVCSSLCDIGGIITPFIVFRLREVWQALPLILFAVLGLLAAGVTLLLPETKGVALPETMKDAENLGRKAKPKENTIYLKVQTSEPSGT
Measurement kind: uptake ratio
# respond with the number and nothing more

>>> measured_value("CN(C)CCc1c[nH]c2ccc(Cn3cncn3)cc12")
4.3
>>> measured_value("CN[C@@H]1CCc2[nH]c3ccc(C(N)=O)cc3c2C1")
30.3
>>> measured_value("COc1ccc2[nH]cc(CCN)c2c1")
3.8

Moving on to another compound below.
Fill in the recorded uptake ratio for this compound, with OCT1 (Homo sapiens) as test system: `CN(C)CCc1c[nH]c2ccc(C[C@H]3COC(=O)N3)cc12` 9.3

* * *

Target: OCT3 (SLC22A3) (Homo sapiens)
Sequence (O75751 whole entry): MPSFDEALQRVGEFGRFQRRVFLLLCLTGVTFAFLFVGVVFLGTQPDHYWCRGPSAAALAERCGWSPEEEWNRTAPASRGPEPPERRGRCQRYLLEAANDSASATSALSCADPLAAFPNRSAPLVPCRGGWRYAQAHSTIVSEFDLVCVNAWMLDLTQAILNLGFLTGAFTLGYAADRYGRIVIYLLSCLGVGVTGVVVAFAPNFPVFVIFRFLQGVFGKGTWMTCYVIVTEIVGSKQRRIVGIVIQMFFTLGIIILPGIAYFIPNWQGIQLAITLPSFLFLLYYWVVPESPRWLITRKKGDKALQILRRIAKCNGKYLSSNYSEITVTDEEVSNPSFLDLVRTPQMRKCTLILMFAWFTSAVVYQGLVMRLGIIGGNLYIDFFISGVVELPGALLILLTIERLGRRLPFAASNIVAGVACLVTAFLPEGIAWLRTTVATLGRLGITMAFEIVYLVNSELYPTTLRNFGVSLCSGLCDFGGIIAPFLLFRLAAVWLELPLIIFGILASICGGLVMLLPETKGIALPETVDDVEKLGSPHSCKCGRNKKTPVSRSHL
Experiment: Inhibition of human OCT3 mediated Famotidine uptake overexpressed in HEK293 cells at 20 uM incubated for 5 mins by HPLC-MS/MS analysis relative to control
Assay type: cell-based
Details: HEK293 cells overexpressing OCT3, probe Famotidine
The compounds listed here are annotated with their inhibition at 5 min, 20 µM.
// note: answer is a bare numeric in %

Recorded inhibition at 5 min, 20 µM, per entry:
>>> measured_value("CC[N+](CC)(CC)CC(=O)Nc1c(C)cccc1C")
52
>>> measured_value("CN(C)c1ccc(/C=C/c2cc[n+](C)cc2)cc1")
63

# query: inhibition at 5 min, 20 µM of entry `CC[C@@H](CO)NCCN[C@@H](CC)CO` -1

# query: inhibition at 5 min, 20 µM of entry `C[N+]1(C)[C@@H]2C[C@H](OC(=O)[C@H](CO)c3ccccc3)C[C@H]1[C@@H]1O[C@@H]12` 40
